Some compounds, each annotated with its measured solubility thermodynamic.
ASSAY INFO: Equilibrium solubility of compound in PBS by HPLC analysis
Format: physicochemical
Please state the figure in µM; there is no need to write the unit.

Worked cases, solubility thermodynamic given:
compound_string=C/C1=C/C[C@H]2CNC(=O)c3cc([nH]c32)-c2cccc3nc(C)c(nc23)NC1 units_of_measure=µM val=23
compound_string=Cc1nc2cccc3c2nc1N[C@H](C)/C=C\C[C@H]1CNC(=O)c2cc-3[nH]c21 units_of_measure=µM val=40
compound_string=C/C1=C\C[C@H]2CNC(=O)c3cc([nH]c32)-c2cccc3nc(C)c(nc23)NC1 units_of_measure=µM val=27

// recorded solubility thermodynamic for "Cc1nc2cccc3c2nc1NCCCC[C@H]1CNC(=O)c2cc-3[nH]c21" : 7
